assay.summary: Selectivity index, ratio of IC50 for african green monkey (Cercopithecus aethiops) Vero cells to IC50 for Plasmodium falciparum W2
details: vero

smiles	selectivity ratio
CC[C@H]1OC(=O)[C@H](C)C(=O)[C@H](C)[C@@H](O[C@@H]2O[C@H](C)C[C@H](N(C)Cc3ccc(-c4cn(CCCCCCCCCC(=O)NO)nn4)cc3)[C@H]2O)[C@](C)(OC)C[C@@H](C)C2=NCCN3C(=O)O[C@@]1(C)[C@H]3[C@H]2C	> 5.3
CC[C@H]1OC(=O)[C@H](C)C(=O)[C@H](C)[C@@H](O[C@@H]2O[C@H](C)C[C@H](N(C)Cc3ccc(-c4cn(CCCCCCC(=O)NO)nn4)cc3)[C@H]2O)[C@](C)(OC)C[C@@H](C)C2=NCCN3C(=O)O[C@@]1(C)[C@H]3[C@H]2C	> 36
CC[C@H]1OC(=O)[C@H](C)C(=O)[C@H](C)[C@@H](O[C@@H]2O[C@H](C)C[C@H](N(C)Cc3ccc(-c4cn(CCCCCC(=O)NO)nn4)cc3)[C@H]2O)[C@](C)(OC)C[C@@H](C)C2=NCCN3C(=O)O[C@@]1(C)[C@H]3[C@H]2C	> 2.68
CC[C@H]1OC(=O)[C@H](C)C(=O)[C@H](C)[C@@H](O[C@@H]2O[C@H](C)C[C@H](N(C)Cc3ccc(-c4cn(CCCCCCCC(=O)NO)nn4)cc3)[C@H]2O)[C@](C)(OC)C[C@@H](C)C2=NCCN3C(=O)O[C@@]1(C)[C@H]3[C@H]2C	> 3.3

Data credit: ChEMBL document CHEMBL1212894
